This collection of values is drawn from paper PMC5564600.

# Target Desc: panel of 442 kinases (Homo sapiens, UniProt Q00537)
# Construct: purchased Ambit Biosciences (scanMAXX KINOMEscan)
# Sequence (Q00537 whole entry): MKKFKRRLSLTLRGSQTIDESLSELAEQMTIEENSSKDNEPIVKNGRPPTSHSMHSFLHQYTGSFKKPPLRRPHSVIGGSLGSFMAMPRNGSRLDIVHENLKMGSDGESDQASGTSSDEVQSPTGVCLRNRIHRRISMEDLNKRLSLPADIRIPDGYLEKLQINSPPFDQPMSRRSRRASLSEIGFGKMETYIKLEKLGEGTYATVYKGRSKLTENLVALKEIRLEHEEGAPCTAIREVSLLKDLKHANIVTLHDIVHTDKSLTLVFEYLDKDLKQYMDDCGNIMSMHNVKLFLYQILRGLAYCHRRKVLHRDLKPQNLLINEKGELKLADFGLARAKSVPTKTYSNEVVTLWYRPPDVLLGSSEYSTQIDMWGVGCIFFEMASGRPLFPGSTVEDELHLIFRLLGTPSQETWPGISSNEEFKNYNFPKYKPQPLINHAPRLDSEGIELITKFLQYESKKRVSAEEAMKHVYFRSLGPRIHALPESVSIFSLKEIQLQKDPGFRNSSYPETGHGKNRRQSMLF
# Procedure Details: biochemical
# Format: binding
# Test Settings: kinase PCTK2; 1 µM; read-out: % of control at 1 µM

[
  {
    "Smi": "COc1ncc(-c2ccc3nccc(-c4ccnnc4)c3c2)cc1NS(=O)(=O)c1ccc(F)cc1F",
    "remaining activity at 1 µM, %": 100
  },
  {
    "Smi": "Cn1c(=O)n(-c2ccc(C(C)(C)C#N)cc2)c2c3cc(-c4cnc5ccccc5c4)ccc3ncc21",
    "remaining activity at 1 µM, %": 100
  },
  {
    "Smi": "Nc1cc(C(F)(F)F)c(-c2cc(N3CCOCC3)nc(N3CCOCC3)n2)cn1",
    "remaining activity at 1 µM, %": 87
  },
  {
    "Smi": "FC(F)c1nc2ccccc2n1-c1nc(N2CCOCC2)nc(N2CCOCC2)n1",
    "remaining activity at 1 µM, %": 100
  }
]

---

# Target Desc: panel of 442 kinases (Homo sapiens, UniProt Q9Y6R4)
# Construct: purchased Ambit Biosciences (scanMAXX KINOMEscan)
# Sequence (Q9Y6R4 whole entry): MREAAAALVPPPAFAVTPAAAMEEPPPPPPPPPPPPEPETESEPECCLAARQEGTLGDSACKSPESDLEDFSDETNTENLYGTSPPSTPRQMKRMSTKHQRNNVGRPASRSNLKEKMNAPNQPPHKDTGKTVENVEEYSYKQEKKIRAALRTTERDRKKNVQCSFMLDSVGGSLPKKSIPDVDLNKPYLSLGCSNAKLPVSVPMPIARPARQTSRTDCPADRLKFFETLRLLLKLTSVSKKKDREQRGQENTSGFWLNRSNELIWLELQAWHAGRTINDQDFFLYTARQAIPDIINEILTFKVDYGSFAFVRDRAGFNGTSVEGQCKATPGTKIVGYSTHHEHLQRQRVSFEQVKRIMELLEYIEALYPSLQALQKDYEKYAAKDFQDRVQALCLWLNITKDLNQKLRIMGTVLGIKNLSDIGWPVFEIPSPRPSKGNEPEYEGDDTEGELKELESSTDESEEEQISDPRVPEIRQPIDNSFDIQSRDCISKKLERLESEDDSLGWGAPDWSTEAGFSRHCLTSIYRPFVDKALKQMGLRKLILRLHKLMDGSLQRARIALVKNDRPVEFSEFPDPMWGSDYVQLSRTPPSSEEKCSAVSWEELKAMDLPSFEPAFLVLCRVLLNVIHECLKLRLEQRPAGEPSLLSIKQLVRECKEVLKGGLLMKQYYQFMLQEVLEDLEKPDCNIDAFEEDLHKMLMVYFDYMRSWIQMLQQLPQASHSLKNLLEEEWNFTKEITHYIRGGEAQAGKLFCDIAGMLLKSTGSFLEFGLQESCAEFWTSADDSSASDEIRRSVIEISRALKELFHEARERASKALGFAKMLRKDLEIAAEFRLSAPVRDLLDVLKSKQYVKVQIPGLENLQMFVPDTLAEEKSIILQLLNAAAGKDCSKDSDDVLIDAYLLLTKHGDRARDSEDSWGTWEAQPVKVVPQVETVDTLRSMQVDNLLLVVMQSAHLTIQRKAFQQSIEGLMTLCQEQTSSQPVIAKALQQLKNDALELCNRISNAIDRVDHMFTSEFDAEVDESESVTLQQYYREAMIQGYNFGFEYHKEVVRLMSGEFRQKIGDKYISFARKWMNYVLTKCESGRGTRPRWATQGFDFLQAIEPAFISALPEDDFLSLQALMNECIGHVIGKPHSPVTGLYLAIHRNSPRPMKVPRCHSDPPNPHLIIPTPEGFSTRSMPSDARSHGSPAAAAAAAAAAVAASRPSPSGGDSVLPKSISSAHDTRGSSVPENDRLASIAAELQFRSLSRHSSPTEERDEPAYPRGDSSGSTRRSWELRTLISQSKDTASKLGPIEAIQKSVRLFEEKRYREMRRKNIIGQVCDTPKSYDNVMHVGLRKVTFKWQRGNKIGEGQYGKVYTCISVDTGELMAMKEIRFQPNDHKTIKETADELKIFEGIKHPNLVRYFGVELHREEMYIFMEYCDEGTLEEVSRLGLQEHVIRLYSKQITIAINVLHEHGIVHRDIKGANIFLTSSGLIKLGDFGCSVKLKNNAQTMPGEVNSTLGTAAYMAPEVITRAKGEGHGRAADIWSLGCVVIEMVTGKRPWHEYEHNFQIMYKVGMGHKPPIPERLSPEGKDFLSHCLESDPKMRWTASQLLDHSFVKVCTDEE
# Procedure Details: biochemical
# Type: binding
# Test Settings: kinase MAP3K4; 1 µM; read-out: % of control at 1 µM

[
  {
    "Compound": "COc1ncc(-c2ccc3nccc(-c4ccnnc4)c3c2)cc1NS(=O)(=O)c1ccc(F)cc1F [Omipalisib]",
    "remaining activity at 1 µM / %": 100
  },
  {
    "Compound": "FC(F)c1nc2ccccc2n1-c1nc(N2CCOCC2)nc(N2CCOCC2)n1 [ZSTK474]",
    "remaining activity at 1 µM / %": 97
  },
  {
    "Compound": "Nc1cc(C(F)(F)F)c(-c2cc(N3CCOCC3)nc(N3CCOCC3)n2)cn1 [Buparlisib]",
    "remaining activity at 1 µM / %": 92
  },
  {
    "Compound": "Cn1c(=O)n(-c2ccc(C(C)(C)C#N)cc2)c2c3cc(-c4cnc5ccccc5c4)ccc3ncc21 [Dactolisib]",
    "remaining activity at 1 µM / %": 96
  }
]

---

Documented remaining activity at 1 µM across a set of molecules
# Target Desc: panel of 442 kinases (Homo sapiens)
# Construct: purchased Ambit Biosciences (scanMAXX KINOMEscan)
# Procedure Details: biochemical
# Type: binding
# Test Settings: FGR; 1 µM; read-out: % of control at 1 µM

[
  {
    "Smi": "Cn1c(=O)n(-c2ccc(C(C)(C)C#N)cc2)c2c3cc(-c4cnc5ccccc5c4)ccc3ncc21",
    "Target Desc": "panel of 442 kinases (Homo sapiens)",
    "remaining activity at 1 µM [%]": 81
  },
  {
    "Smi": "Nc1cc(C(F)(F)F)c(-c2cc(N3CCOCC3)nc(N3CCOCC3)n2)cn1",
    "Target Desc": "panel of 442 kinases (Homo sapiens)",
    "remaining activity at 1 µM [%]": 100
  },
  {
    "Smi": "COc1ncc(-c2ccc3nccc(-c4ccnnc4)c3c2)cc1NS(=O)(=O)c1ccc(F)cc1F",
    "Target Desc": "panel of 442 kinases (Homo sapiens)",
    "remaining activity at 1 µM [%]": 84
  },
  {
    "Smi": "FC(F)c1nc2ccccc2n1-c1nc(N2CCOCC2)nc(N2CCOCC2)n1",
    "Target Desc": "panel of 442 kinases (Homo sapiens)",
    "remaining activity at 1 µM [%]": 87
  }
]

---

# Target Desc: panel of 442 kinases (Homo sapiens, UniProt Q6ZN16)
# Construct: purchased Ambit Biosciences (scanMAXX KINOMEscan)
# Sequence (Q6ZN16 whole entry): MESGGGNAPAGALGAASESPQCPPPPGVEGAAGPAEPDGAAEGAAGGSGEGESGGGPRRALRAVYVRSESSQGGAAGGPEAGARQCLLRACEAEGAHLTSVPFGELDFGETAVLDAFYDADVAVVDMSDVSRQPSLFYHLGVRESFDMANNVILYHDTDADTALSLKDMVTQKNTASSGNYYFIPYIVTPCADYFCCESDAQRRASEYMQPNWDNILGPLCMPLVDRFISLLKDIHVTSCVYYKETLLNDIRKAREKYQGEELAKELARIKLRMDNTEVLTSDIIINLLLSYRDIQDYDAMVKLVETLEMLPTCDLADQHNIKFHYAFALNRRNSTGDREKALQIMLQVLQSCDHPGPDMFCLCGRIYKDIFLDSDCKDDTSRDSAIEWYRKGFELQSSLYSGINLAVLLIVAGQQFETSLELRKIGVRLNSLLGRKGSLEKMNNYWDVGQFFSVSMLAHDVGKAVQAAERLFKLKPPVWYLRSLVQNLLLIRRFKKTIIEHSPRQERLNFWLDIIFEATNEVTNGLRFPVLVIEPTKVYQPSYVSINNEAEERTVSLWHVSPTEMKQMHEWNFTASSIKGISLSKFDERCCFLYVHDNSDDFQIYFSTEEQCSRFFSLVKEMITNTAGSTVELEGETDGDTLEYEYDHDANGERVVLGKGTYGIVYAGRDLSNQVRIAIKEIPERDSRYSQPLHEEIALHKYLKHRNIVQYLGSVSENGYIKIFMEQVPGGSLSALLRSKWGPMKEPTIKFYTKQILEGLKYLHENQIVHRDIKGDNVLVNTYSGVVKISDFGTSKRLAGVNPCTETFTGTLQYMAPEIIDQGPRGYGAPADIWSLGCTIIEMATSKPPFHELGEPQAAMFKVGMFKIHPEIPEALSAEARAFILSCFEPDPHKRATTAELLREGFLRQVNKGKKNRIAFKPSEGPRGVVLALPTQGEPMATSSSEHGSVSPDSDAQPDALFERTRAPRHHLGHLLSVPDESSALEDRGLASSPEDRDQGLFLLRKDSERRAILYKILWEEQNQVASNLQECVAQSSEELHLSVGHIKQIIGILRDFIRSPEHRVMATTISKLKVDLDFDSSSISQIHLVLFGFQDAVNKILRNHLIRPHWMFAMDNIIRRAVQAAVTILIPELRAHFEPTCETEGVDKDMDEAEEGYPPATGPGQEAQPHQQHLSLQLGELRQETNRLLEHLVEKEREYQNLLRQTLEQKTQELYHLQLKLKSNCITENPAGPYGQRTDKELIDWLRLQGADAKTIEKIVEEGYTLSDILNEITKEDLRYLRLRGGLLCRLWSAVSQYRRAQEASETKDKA
# Procedure Details: biochemical
# Format: binding
# Test Settings: kinase MAP3K15; 1 µM; read-out: % of control at 1 µM

[
  {
    "Smi": "Nc1cc(C(F)(F)F)c(-c2cc(N3CCOCC3)nc(N3CCOCC3)n2)cn1",
    "Units Text": "%",
    "remaining activity at 1 µM": 97
  },
  {
    "Smi": "FC(F)c1nc2ccccc2n1-c1nc(N2CCOCC2)nc(N2CCOCC2)n1",
    "Units Text": "%",
    "remaining activity at 1 µM": 100
  },
  {
    "Smi": "COc1ncc(-c2ccc3nccc(-c4ccnnc4)c3c2)cc1NS(=O)(=O)c1ccc(F)cc1F",
    "Units Text": "%",
    "remaining activity at 1 µM": 90
  },
  {
    "Smi": "Cn1c(=O)n(-c2ccc(C(C)(C)C#N)cc2)c2c3cc(-c4cnc5ccccc5c4)ccc3ncc21",
    "Units Text": "%",
    "remaining activity at 1 µM": 100
  }
]

---

# Target Desc: CYP2C19 (Homo sapiens, UniProt P33261)
# Construct: was evaluated in human liver microsomes incubated with SN32976; tissue Cyprotex (contract research organization); host or cells: human liver microsomes
# Procedure Details: Cytochrome P450 inhibition in human liver microsomes, CYP2C19
# Assay type: in vitro ADME
# Test Settings: read-out: CYP inhibition 2C19 IC50

[
  {
    "Compound": "COc1cccc2c1nc(C(F)F)n2-c1nc(N2CCOCC2)nc(N2CCN(S(=O)(=O)CCN(C)C)CC2)n1 [SN32976]",
    "IC50": "> 25 µM"
  }
]

---

# Target Desc: panel of 442 kinases (Homo sapiens)
# Construct: purchased Ambit Biosciences (scanMAXX KINOMEscan)
# Procedure Details: biochemical
# Type: binding
# Test Settings: kinase IRAK4; 1 µM; read-out: % of control at 1 µM
Documented remaining activity at 1 µM across a set of compounds
Reported Property: remaining activity at 1 µM (%)

[
  {
    "Compound": "Cn1c(=O)n(-c2ccc(C(C)(C)C#N)cc2)c2c3cc(-c4cnc5ccccc5c4)ccc3ncc21 [Dactolisib]",
    "Reported": 68
  },
  {
    "Compound": "Nc1cc(C(F)(F)F)c(-c2cc(N3CCOCC3)nc(N3CCOCC3)n2)cn1 [Buparlisib]",
    "Reported": 62
  },
  {
    "Compound": "FC(F)c1nc2ccccc2n1-c1nc(N2CCOCC2)nc(N2CCOCC2)n1 [ZSTK474]",
    "Reported": 100
  },
  {
    "Compound": "COc1ncc(-c2ccc3nccc(-c4ccnnc4)c3c2)cc1NS(=O)(=O)c1ccc(F)cc1F [Omipalisib]",
    "Reported": 88
  }
]

---

Documented remaining activity at 1 µM across a set of molecules
# Target Desc: panel of 442 kinases (Plasmodium falciparum, UniProt P61075)
# Construct: purchased Ambit Biosciences (scanMAXX KINOMEscan)
# Sequence (P61075 whole entry): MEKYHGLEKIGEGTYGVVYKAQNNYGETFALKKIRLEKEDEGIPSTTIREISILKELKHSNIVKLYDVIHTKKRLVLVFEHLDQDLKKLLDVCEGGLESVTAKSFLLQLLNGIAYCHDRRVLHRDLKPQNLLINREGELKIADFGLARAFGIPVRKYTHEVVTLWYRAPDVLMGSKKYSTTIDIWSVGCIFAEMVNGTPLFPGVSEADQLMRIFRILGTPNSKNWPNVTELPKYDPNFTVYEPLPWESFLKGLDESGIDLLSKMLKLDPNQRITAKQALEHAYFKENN
# Procedure Details: biochemical
# Assay type: binding
# Test Settings: kinase PFPK5(P.falciparum); 1 µM; read-out: % of control at 1 µM
Reported Property: remaining activity at 1 µM (%)

[
  {
    "Smi": "Nc1cc(C(F)(F)F)c(-c2cc(N3CCOCC3)nc(N3CCOCC3)n2)cn1",
    "Target Desc": "panel of 442 kinases (Plasmodium falciparum, UniProt P61075)",
    "Reported": 100
  },
  {
    "Smi": "COc1ncc(-c2ccc3nccc(-c4ccnnc4)c3c2)cc1NS(=O)(=O)c1ccc(F)cc1F",
    "Target Desc": "panel of 442 kinases (Plasmodium falciparum, UniProt P61075)",
    "Reported": 100
  },
  {
    "Smi": "CS(=O)(=O)N1CCN(Cc2cc3nc(-c4cccc5[nH]ncc45)nc(N4CCOCC4)c3s2)CC1",
    "Target Desc": "panel of 442 kinases (Plasmodium falciparum, UniProt P61075)",
    "Reported": 92
  },
  {
    "Smi": "Cn1c(=O)n(-c2ccc(C(C)(C)C#N)cc2)c2c3cc(-c4cnc5ccccc5c4)ccc3ncc21",
    "Target Desc": "panel of 442 kinases (Plasmodium falciparum, UniProt P61075)",
    "Reported": 100
  },
  {
    "Smi": "FC(F)c1nc2ccccc2n1-c1nc(N2CCOCC2)nc(N2CCOCC2)n1",
    "Target Desc": "panel of 442 kinases (Plasmodium falciparum, UniProt P61075)",
    "Reported": 100
  }
]

---

Documented remaining activity at 1 µM across a set of compounds
# Target Desc: panel of 442 kinases (Homo sapiens, UniProt O94804)
# Construct: purchased Ambit Biosciences (scanMAXX KINOMEscan)
# Sequence (O94804 whole entry): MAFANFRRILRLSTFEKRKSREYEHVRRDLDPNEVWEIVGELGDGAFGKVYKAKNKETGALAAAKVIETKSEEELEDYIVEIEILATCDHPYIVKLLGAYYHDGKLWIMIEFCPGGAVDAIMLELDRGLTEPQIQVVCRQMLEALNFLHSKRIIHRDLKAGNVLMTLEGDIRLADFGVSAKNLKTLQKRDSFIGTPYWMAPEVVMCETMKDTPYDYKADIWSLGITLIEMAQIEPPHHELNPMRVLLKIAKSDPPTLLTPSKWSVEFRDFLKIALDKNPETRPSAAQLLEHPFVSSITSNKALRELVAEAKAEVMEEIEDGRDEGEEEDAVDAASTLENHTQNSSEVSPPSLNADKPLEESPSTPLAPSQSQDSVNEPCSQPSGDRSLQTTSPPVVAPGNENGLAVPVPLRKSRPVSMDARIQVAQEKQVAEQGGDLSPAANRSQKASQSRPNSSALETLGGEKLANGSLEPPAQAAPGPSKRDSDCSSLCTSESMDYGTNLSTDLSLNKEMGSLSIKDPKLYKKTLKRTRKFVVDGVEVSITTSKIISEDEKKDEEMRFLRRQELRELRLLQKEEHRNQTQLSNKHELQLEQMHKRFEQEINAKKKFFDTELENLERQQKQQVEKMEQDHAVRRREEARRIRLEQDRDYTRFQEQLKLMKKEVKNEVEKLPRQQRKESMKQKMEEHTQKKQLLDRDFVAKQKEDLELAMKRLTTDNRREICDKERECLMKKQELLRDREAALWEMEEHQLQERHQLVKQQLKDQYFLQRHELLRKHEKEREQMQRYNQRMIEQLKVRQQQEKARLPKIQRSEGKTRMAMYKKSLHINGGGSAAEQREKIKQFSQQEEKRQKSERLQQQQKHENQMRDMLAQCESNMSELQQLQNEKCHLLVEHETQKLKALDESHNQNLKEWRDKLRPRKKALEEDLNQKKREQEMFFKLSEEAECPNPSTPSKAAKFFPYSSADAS
# Procedure Details: biochemical
# Assay type: binding
# Test Settings: kinase LOK; 1 µM; read-out: % of control at 1 µM

[
  {
    "Smi": "Nc1cc(C(F)(F)F)c(-c2cc(N3CCOCC3)nc(N3CCOCC3)n2)cn1",
    "remaining activity at 1 µM [%]": 92
  },
  {
    "Smi": "FC(F)c1nc2ccccc2n1-c1nc(N2CCOCC2)nc(N2CCOCC2)n1",
    "remaining activity at 1 µM [%]": 100
  },
  {
    "Smi": "Cn1c(=O)n(-c2ccc(C(C)(C)C#N)cc2)c2c3cc(-c4cnc5ccccc5c4)ccc3ncc21",
    "remaining activity at 1 µM [%]": 100
  },
  {
    "Smi": "COc1ncc(-c2ccc3nccc(-c4ccnnc4)c3c2)cc1NS(=O)(=O)c1ccc(F)cc1F",
    "remaining activity at 1 µM [%]": 100
  }
]
